target: HCMV polymerase (Human cytomegalovirus); construct: made in house; host or cells: recombinant baculovirus-infected SF-9 cells; test: HCMV polymerase scintillation proximity assay (SPA), modified version; type: biochemical; conditions: CMV polymerase; Table 1; modified assay with 4.5 mM DTT, compounds in 100% DMSO; read-out: Antiviral Selective Polymerase IC50 Values, CMV
Sequence (P08546 whole entry): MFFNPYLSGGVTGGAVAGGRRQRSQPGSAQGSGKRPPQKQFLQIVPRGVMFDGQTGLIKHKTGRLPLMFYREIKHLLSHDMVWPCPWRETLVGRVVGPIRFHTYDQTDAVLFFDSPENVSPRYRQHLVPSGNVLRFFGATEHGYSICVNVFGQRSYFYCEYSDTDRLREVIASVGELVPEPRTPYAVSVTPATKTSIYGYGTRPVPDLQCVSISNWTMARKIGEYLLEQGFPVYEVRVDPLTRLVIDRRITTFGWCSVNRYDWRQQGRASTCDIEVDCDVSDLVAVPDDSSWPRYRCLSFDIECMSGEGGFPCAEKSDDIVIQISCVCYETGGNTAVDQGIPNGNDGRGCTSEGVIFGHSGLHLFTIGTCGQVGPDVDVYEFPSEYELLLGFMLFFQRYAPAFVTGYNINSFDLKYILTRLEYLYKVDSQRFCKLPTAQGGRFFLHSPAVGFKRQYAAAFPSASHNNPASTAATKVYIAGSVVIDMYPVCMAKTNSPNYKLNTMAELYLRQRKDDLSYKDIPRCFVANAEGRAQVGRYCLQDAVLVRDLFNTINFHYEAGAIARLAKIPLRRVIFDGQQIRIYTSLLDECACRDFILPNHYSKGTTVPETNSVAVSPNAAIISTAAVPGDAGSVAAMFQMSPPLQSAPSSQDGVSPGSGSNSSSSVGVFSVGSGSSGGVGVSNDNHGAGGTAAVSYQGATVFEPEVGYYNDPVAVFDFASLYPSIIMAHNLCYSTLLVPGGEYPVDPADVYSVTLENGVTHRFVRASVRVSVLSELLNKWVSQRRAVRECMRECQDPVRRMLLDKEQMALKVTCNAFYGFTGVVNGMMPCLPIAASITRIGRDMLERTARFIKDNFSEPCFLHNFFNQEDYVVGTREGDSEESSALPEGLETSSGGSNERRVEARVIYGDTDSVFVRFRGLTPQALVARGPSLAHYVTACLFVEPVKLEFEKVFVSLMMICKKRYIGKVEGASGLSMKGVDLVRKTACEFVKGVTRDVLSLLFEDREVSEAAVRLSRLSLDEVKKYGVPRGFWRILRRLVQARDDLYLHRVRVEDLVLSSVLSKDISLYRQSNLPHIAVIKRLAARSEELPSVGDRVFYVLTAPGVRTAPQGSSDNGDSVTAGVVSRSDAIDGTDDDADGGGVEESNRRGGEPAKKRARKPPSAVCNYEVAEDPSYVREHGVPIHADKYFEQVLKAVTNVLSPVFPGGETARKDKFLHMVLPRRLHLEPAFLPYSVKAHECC
OBSERVABLE: IC50 (nM)

{"columns": ["COMPOUND", "VALUE REPORTED"],
 "data": [
  ["COc1c(F)c(F)cc2c(O)c(C(=O)NCc3ccc(Cl)cc3)cnc12", 960]
]}

(1) CC(O)CCc1ccc2ncc(C(=O)NCc3ccc(Cl)cc3)c(O)c2c1 (stereo not drawn)
(2) O=C(NCc1ccc(Cl)cc1)c1cnc2c(F)cc(S(=O)(=O)NCCN3CCOCC3)cc2c1O
Ask: Hi, I'm comparing 1 with 2 and wondering which one has the bigger number for IC50. Any idea? // caller expects the label of the chosen entry
Result: 2
(2: 18900 nM, 1: 920 nM)

Values were extracted from patent US6093732A.
